- Tested on: Drosophila
- MEASUREMENT DESCRIPTION: Protection against fragile X syndrome phenotypes in laboratory prepared food feeded Fmr1 null mutant Drosophila Fmr1'3/TM6C assessed as homozygous Fmr1-/- embryo viability at 40 uM at 25 degC by flow cytometry relative to untreated homozygous embryos fed with only laboratory prepared food
- Assay type: functional
Let's look at some compounds and their measured Activity.

{"columns": ["COMPOUND", "UOM", "Activity"],
 "data": [
  ["C/C=C(/C(=C/C)c1ccc(O)cc1)c1ccc(O)cc1 [DIENESTROL]", "%", 71.3],
  ["CN1CC(=O)NC1=N [CREATININE]", "%", 123.2],
  ["CN1[C@@H]2CC[C@H]1C[C@@H](OC(c1ccccc1)c1ccccc1N)C2 (stereo not given in full) [AMINOBENZTROPINE]", "%", 66.38],
  ["NCCCC(=O)O [GAMMA-AMINOBUTYRIC ACID]", "%", 83.1],
  ["O=C(O)C1CCCNC1 (stereo not given) [NIPECOTIC ACID]", "%", 84.2]
]}
